system: Escherichia coli; assay: minimum inhibitory concentration (MIC); details: isolate (source animal id): 114
Measurement label: minimum inhibitory concentration (µg/mL)
Number only, in µg/mL; omit the unit.

As a guide, the following entries are already answered.
CC1(C)S[C@@H]2[C@H](NC(=O)[C@H](N)c3ccccc3)C(=O)N2[C@H]1C(=O)O [Ampicillin] : 4
CS(=O)(=O)c1ccc([C@@H](O)[C@@H](CF)NC(=O)C(Cl)Cl)cc1 [Florfenicol] : 4
CCCN1C[C@H](C)[C@@H](O)[C@](C)(O)[C@@H](CC)OC(=O)[C@H](C)[C@@H](O[C@H]2C[C@@](C)(OC)[C@@H](O)[C@H](C)O2)[C@H](C)[C@@H](O[C@@H]2O[C@H](C)C[C@H](N(C)C)[C@H]2O)[C@](C)(O)C[C@H]1C [Gamithromycin] : 8

Query molecule follows.
With Escherichia coli as the test system, CO/N=C(\C(=O)N[C@@H]1C(=O)N2C(C(=O)O)=C(CSC(=O)c3ccco3)CS[C@H]12)c1csc(N)n1 [Ceftiofur] showed minimum inhibitory concentration of 0.5
